TESTED_TARGET: Gal(a1-2)Gal
TEST_METHOD_NOTES: glycan array binding signal (z-score within array); higher = stronger binding
EXPERIMENTAL_SETUP: glycan notation: IUPAC condensed, linker removed
The full list was thinned out, with the strongest signals kept by preference.
REPORTED_PROPERTY: glycan array binding signal (z-score)
Form field (numeric): enter value without unit.

Noted for Als3-41 (Candida albicans) (protein) KTITGVFNSFNSLTWSNAATYNYKGPGTPTWNAVLGWSLDGTSASPGDTFTLNMPCVFKFTTSQTSVDLTAHGVKYATCQFQAGEEFMTFSTLTCTVSNTLTPSIKALGTVTLPLAFNVGGTGSSVDLEDSKCFTAGTNTVTFNDGGKKISINVDFERSNVDPKGYLTDSRVIPSLNKVSTLFVAPQCANGYTSGTMGFANTYGDVQIDCSNIHVGITKGLNDWNYPVSSESFSYTKTCSSNGIFITYKNVPAGYRPFVDAYISATDVNSYTLSYANEYTCAGGYWQRAPFTLRWTGYRNSDAGSNGIVIVATTRTVTDSTTAVTTLPFDPNRDKTKTIEILKPIPTTTITTSYVGVTTSYLTKTAPIGETATVIVD : its glycan array binding signal (z-score) reads -0.006

// sample Epa8 (Candida glabrata) (protein) MGSSHHHHHHSSGLVPRGSHMASSRALSDYPLGCSPLLGTKLTPGLSMELYEYPLDNHGIGPHCWDPAYLNPEYPRTGFESHKLIGTAQNVMSLNFEHRTQDCHVEFSNLPASFNFPDQITLTNFTMLLYGYFKPKESGRYRFHMEADDLLLMNLGAGNAFDCCAHEATRNNLGDYIAYDIWAGTRKDVEVFLEKEVFYPLRLFFNNRDGRAALDFSYYLNGATEPGTDIPELLFSLPDGESCPAYI , its glycan array binding signal (z-score) was -0.54

According to the records, this binder NakA (Mycobacterium tuberculosum) (protein) SVVKPTKVTVFSPDGGADNPGEADLAIDGNPATSWKTDIYTDPVPFPSFKNGVGLMLQLPQATVVGTVAIDVASTGTKVEIRSASTPTPATLEDTAVLTSATALRPGHNTISVEAAAPTSNLLVWISTLGTTDGKSQADISEITIYAASD displays glycan array binding signal (z-score) of -0.019

Input F4 (Escherichia coli), A0A6L9DDF0 (protein) MKKTLIALALAASAVSGMAHAWTSGDFNGTVDIGGSIDATNYRQKWEWEVGTGLNGFYNALSELTNNDTKLTITVTGNKPILLGRTKEAFVTPTAGGWGGIPQIAFTDYKGAPVELKNPDGETNKGLAYFVLPMKNADGTEAGSVRVNASYAGAVVEKTSDSSAKLFSAYAGEVIRIFNGGLPVNVTQSELQSGVAAADRTALFGSLGKADLVAQFQAVIPGATVTDGTSSEHCTMRLLASAAYALGIADGQTIEATFNQAVTTSTQWSAPLNVAITYY . Output glycan array binding signal (z-score): -0.128
